Where do the numbers come from? From patent US20250019450A1.

# tested-on: human IL-12 receptor (IL-12Rβ1 and IL-12Rβ2) on HEK-Blue IL-12 cells (human, UniProt P42701 24-662; Q99665 24-862)
# Sequence (Q99665 24-862, chain 2 of 2, other chains not shown): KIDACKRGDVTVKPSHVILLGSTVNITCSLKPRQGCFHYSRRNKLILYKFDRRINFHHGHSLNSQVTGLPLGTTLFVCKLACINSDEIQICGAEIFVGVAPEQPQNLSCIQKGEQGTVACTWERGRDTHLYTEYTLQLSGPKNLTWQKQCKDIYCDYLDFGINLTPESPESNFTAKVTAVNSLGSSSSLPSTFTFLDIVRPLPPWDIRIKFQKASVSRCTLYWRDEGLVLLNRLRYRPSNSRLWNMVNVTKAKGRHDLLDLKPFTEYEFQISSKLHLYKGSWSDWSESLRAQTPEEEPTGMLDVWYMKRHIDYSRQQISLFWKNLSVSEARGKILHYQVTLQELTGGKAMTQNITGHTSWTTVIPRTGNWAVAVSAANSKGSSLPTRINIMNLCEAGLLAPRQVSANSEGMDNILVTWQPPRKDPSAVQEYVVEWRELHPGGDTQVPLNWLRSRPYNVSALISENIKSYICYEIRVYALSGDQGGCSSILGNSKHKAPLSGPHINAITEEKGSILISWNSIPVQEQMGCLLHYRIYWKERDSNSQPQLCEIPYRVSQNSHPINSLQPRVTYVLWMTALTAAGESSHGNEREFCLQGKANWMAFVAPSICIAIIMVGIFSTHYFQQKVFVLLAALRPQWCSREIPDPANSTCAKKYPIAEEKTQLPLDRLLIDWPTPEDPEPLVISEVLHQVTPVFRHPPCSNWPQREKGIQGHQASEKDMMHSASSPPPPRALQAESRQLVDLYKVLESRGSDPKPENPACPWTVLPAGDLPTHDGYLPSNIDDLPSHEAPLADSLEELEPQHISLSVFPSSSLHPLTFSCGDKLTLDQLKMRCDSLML
# experimental-details: cell-based or functional assay
quantity: EC50

binder	EC50
DGL462 (bispecific antibody, V domains shown) V domain 1: EVQLVESGGGLVQPGGSLRLSCAASGFTFQNYAMSWLRKAPGEGLEWVSVINSGGGSTLYADSVKGRFTISRDNAKNTLYLQMHSLKSEDTAVYFCAKRRDDSTFGSLLYTHRGQGTQVTVEP V domain 2: QVQLVESGGGLVQAGGSLRLSCAASGRIFSAYRMGWFRQAPGKEREFVAGITWRGQTTYYAASVKGRFTISKDNAKKTVYLQMNSLKPEETAVYYCAVETNGLGRWDRPSEYDYWGQGTQVTVEP	1.2e-09 M (implied)
DGL534 (bispecific antibody, V domains shown, 115B1 x 19B2) V domain 1: QVQLVESGGGLVQAGGSLRLSCLASGRTSNYFMGWFRQAPGKEREFVAAISRSGGGTWYADSVKGRFAISRDNAKNTVNLQMNSLKREDTAVYYCAADRRTGTSVYTVDEYDYWGQGTQVTVEP V domain 2: QVQLVESGGGLVQPGGSLRLSCAASGFTFSNYAMSWVRQAPGKGLEWVSAINSDGTSTSYADSVKGQFTISRDNAKNTLYLQMNSLKPEDTAVYYCTKWEGDTDSDYKFKDYWGQGTQVTVEP	4.5e-10 M (implied)
DGL524 (bispecific antibody, V domains shown) V domain 1: EVQLVESGGGLVQPGGSLRLFCAASRSIFNINIMGWYRQAPGKQREWLASITSGGSTFYADSVKDRFTISRDSVKNTVYLQMNSLKPEDTAAYYCNRYRSVPLNTVYPWGQGTLVTVEP V domain 2: QVQLVESGGGLVQAGGSLRLSCAASGRIFSAYRMGWFRQAPGKEREFVAGITWRGQTTYYAASVKGRFTISKDNAKKTVYLQMNSLKPEETAVYYCAVETNGLGRWDRPSEYDYWGQGTQVTVEP	4.4e-10 M (implied)
DGL606 (bispecific antibody, V domains shown, 238B1 x 219B2) V domain 1: QLQLVESGGGLVQPGGSLRLSCAASGFTFSSYGMSWVRQAPGKGLEWVSYISAGGGTTTYVDFVKGRFTISRDNAKNMLYLQMNSLKPEDTAVYYCVHAADGSRGQGTQVTVEP V domain 2: QVQLEESGGGLVQAGGSLRLSCAASGRTFSSYVVGWFRQAPGKEREFVGRISWSGARTYYADSVEGRFTISRDNAKNTVYLQMNSLKPEDTAVYYCAADLKWEVLLSEHYEYWGQGTQVTVEP	8.8e-09 M (implied)

From here, focus on the item given below.
Which EC50 value is on record for DGL586 (bispecific antibody, V domains shown, 258B1 x 19B2) V domain 1: QVQLVESGGGLVQAGGSLRLSCAASGRTFSSYVMGWFRQAPGQEREFVAAIMRNGIMTYYADSVKGRFTISRDNAKNTVYLQMNTLKPDDTAVYYCAAASRVGVSISQSSSYTSWGQGTQVTVEP V domain 2: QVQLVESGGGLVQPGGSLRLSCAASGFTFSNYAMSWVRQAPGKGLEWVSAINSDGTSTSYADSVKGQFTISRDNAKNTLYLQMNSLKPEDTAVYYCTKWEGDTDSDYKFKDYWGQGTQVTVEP ?
7.7e-11 M (implied)
